# system: LRP6 (recombinant human LRP-6, Fc chimera) (Homo sapiens, UniProt O75581 20-1370)
# Sequence (O75581 20-1370, change not shown): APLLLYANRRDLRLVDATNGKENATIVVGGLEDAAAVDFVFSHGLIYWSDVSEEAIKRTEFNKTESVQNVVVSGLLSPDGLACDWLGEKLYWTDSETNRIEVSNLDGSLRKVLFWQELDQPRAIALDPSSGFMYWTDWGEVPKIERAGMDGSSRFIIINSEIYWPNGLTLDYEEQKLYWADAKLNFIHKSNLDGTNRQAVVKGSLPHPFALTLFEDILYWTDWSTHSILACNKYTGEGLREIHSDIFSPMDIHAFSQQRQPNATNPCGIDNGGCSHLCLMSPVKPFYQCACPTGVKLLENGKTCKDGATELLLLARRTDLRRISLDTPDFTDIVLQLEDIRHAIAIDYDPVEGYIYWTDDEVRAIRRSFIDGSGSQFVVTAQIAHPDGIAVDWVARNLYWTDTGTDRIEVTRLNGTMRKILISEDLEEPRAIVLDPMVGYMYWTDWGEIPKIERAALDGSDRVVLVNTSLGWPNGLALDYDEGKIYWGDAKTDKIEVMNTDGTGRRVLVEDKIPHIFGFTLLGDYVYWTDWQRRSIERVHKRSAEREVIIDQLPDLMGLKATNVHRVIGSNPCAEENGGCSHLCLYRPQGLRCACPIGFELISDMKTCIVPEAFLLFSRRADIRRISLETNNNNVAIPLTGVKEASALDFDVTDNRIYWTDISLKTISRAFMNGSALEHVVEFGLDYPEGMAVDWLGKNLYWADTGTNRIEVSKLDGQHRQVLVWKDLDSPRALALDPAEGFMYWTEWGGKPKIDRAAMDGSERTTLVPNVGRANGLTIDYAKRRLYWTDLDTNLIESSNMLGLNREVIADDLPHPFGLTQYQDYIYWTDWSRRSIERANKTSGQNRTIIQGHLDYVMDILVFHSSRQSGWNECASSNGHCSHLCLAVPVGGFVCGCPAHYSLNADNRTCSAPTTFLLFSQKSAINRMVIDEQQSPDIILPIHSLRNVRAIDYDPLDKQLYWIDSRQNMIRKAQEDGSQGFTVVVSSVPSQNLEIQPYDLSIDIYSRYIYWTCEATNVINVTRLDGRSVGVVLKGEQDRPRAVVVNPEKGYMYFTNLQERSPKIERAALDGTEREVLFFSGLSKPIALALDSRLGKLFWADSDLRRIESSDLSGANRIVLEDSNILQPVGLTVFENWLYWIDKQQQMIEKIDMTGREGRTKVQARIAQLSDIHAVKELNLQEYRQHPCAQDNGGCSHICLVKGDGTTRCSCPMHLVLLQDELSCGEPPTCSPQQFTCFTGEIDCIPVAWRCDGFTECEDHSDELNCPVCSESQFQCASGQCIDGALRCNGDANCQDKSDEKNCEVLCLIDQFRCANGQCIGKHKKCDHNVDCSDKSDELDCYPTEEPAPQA
# assay overview: SPR; CE-LIF: incubation pH 8.0, 0.155% glutathione, 0.395% Tris-HCl; running buffer 50 mM borate pH 7.6, 20 kV, 25 C (CE-SELEX conditions). SPR: PBST pH 7.4, 0.05% Tween-20, 25 C, protein amine-coupled on CM5. AuNP: room temperature, then 0.9 M NaCl.
# condition label: protein: commercial; tags: Fc chimera; chain copies: 2
observation type: pKd
Note on units: pKd is unitless, being -log10 of a concentration expressed in mol/L.

Exercise: Quick one: give measured pKd for MutLRP6-A3 (ssDNA) DNA: AGCAGCACAGAGGTTATTTGGCAGCTAAGCAGGCGGCTCACAAAACCATTCGCATGCGGCCCTATGCGTGCTTTTGTGAA
Key: 5.57
